- Experimental system: T1, purified S. aureus β-clamp (ITC sample) (S. aureus, UniProt P0A024 1-377)
- T1 sequence: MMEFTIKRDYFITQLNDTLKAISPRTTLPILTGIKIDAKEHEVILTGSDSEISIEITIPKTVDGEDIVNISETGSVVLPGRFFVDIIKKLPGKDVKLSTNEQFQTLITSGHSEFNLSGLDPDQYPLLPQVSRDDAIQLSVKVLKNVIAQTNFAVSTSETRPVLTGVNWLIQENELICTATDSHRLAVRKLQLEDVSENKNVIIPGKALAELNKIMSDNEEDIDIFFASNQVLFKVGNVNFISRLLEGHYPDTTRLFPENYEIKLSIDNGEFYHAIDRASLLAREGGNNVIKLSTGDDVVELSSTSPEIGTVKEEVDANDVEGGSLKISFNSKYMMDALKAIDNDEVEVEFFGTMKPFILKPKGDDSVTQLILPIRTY
- Method notes: ITC
Readout type: Kd (nM)
Number only, in nM; omit the unit.

Q: So what does the record say about Kd for polyhistidine-tagged Gp168 of bacteriophage Twort (natural protein) MLFFKEKFYNELSYYRGGHKDLESMFELALEYIEKLEEEDEQQVTDYENAMEEELRDAVDVIESQLEIIKDIVR ?
Result: 95
